Please go through the items and note down their z-score.
# assay info: E. coli DRC41 culture turbidity changes, primary screen, E. coli filamentation inducer project, strain DRC41, OD650, 48 h (AID 1152);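 further: E. coli MC1000 strain DRC41 lacking acrAB efflux pump and sulA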
# condition context: E. coli DRC41 (acrAB sulA), higher = more signal, called active from +8 up or from −8 down
Form field (numeric): enter value without unit.

Input line: # query: z-score of entry `CO[C@H]1COC(=O)CC=C[C@H](C)[C@@H](OC)COC(=O)[C@@H](C)NC(=O)CC=C[C@@H]1C`
Output line: 0.0321

Input line: Request: `CCN1C(=O)[C@H]2[C@H]3[C@H](O)[C@H](O)CC(=NOC[C@H]4O[C@H](c5ccccc5)C=C[C@@H]4Oc4ccc(OC)cc4)[C@@H]3CC[C@H]2C1=O`
Output line: 0.575

Input line: And the next one, `O=C1C[C@@H](O)[C@@H](O)[C@@H]2[C@@H]3C(=O)N(C[C@@H]4CCCO4)C(=O)[C@@H]3CC[C@H]12` ?
Output line: 0.555

Input line: Similarly, `C[C@@H](c1ccccc1)N1C(=O)[C@H]2[C@H]3[C@H](O)[C@H](O)CC(=O)[C@H]3CC[C@H]2C1=O` ?
Output line: 0.477

Input line: Same for COC(=O)[C@H](C)NC(=O)CCC1CC(OC(=O)NCCc2ccc(F)cc2)CC2(CCCC(COC(=O)NCCC(C)C)O2)O1 (stereo not given in full)
Output line: -0.484

Input line: Let us now turn to `COC(=O)CC=C[C@@H](C)[C@@H](C=NO[C@@H](C)c1cn([C@H](CO)Cc2ccccc2)nn1)OC`
Output line: -0.64

Input line: Also Cc1cc2c(nc1C)CCCCN2CC(C)ON=C1[C@H]2CCn3c(=O)n(-c4ccccc4)c(=O)n3[C@H]2[C@H](O)[C@@H]2O[C@H]12 (stereo not given in full) , if possible.
Output line: 1.03

Input line: Another: `CC(C)CON=C1[C@H]2CCn3c(=O)n(Cc4cc5c(cc4Cl)OCO5)c(=O)n3[C@H]2[C@H](O)[C@@H]2O[C@H]12`
Output line: -1.41

Input line: Could you do the same for `CCOC(=O)NN=C1C[C@@H](O)[C@@H](O)[C@@H]2[C@@H]3C(=O)N(c4cccc(Oc5ccccc5)c4)C(=O)[C@@H]3CC[C@H]12` , please?
Output line: 0.0433

Input line: Next entry: `COC(=O)[C@@H]1CC[C@H](C)[C@@H](c2ccc(C)cc2)N1C(=O)c1ccc(C=NOC[C@@H](C)[C@H](OCc2ccccc2)C(C)C)cc1`
Output line: -1.07

Input line: Now consider `CC(C)=CCCC(C)=CCON=C1C[C@@H](O)[C@@H](O)[C@@H]2[C@@H]3C(=O)N(Cc4ccccc4)C(=O)[C@@H]3CC[C@@H]12` and answer again.
Output line: -0.0866

Input line: Moving on to `CC(C)=NO[C@H](C)c1cn([C@H](CO)Cc2ccccc2)nn1`
Output line: -2.06

Input line: // query: `COc1ccc(O[C@H]2C=C[C@@H](c3ccccc3)O[C@@H]2CON=C(C)CCC(=O)OC[C@H]2O[C@H](c3ccccc3)C=C[C@@H]2Oc2ccc(OC)cc2)cc1`
Output line: 0.274

Input line: Another: `CC(=O)OC[C@H]1O[C@H](CC=NO[C@H](C)c2cn([C@H](CO)Cc3ccccc3)nn2)C=C[C@@H]1OC(C)=O`
Output line: -0.176

Input line: Repeat for the following molecule: `C#CCCCON=C1C[C@@H](O)[C@@H](O)[C@@H]2[C@@H]3C(=O)N(C(C)(C)C)C(=O)[C@@H]3CC[C@@H]12`
Output line: -0.441

Input line: And what about the molecule `C[n+]1ccc(-c2ccc(CO)cc2)cc1` ?
Output line: 0.209

Input line: Now consider `CCCNC(=O)OC[C@H]1O[C@H](c2ccccc2)C=C[C@@H]1Oc1ccc(OC)cc1` .
Output line: 0.604

Input line: Proceed to `COc1ccc(O[C@H]2C=C[C@@H](c3ccccc3)O[C@@H]2CON=CC[C@@H]2C=C[C@H](OC(C)=O)[C@@H](COC(C)=O)O2)cc1`
Output line: -0.259

Input line: // repeat for CCOC(=O)[C@H](CC(C)C)NC(=O)CCC1CC(OC(=O)NCCc2ccc(F)cc2)CC2(CCCC(COC(=O)NCCc3ccccc3OC)O2)O1 (stereo not given in full) and report
Output line: -0.501

Input line: // query: C[C@H]1CC[C@H]2C(=O)OC(CO)CN2[C@@H]1c1ccc(Br)cc1 (stereo not given in full)
Output line: -0.565

Input line: Next up: `COC(=O)C=CCCc1coc(C=CCNC(=O)OC)n1`
Output line: -0.747

Input line: Same again, this time with `CO[C@H]1COC(=O)CC=C[C@H](C)[C@@H](OC)COC(=O)[C@H](C)COC(=O)CC=C[C@@H]1C`
Output line: 0.79

Input line: And the next one, `C[C@@H]1CC[C@H]2C(=O)O[C@@H](Cc3ccccc3)CN2[C@H]1c1ccc(Br)cc1` ?
Output line: -0.28

Input line: Then this molecule: `COc1ccc(COC(=O)NN=C2C[C@@H](O)[C@@H](O)[C@@H]3[C@@H]4C(=O)N(c5cccc(Oc6ccccc6)c5)C(=O)[C@@H]4CC[C@@H]23)cc1`
Output line: -0.367

Input line: Check `CON=C[C@@H](C)[C@H](OCc1ccccc1)C(C)C` too.
Output line: -2.85

Input line: For `CC(C)=CCCC(C)=CCON=C1C[C@@H](O)[C@@H](O)[C@@H]2[C@@H]3C(=O)N(C[C@@H]4CCCO4)C(=O)[C@@H]3CC[C@H]12` then?
Output line: -0.249

Input line: Now this one: CCOC(=O)[C@H](CC(C)C)NC(=O)CCC1CC(OC(=O)NCCc2ccc(F)cc2)CC2(CCCC(COC(=O)NCCC(C)C)O2)O1 (stereo not given in full)
Output line: -1.14

Input line: Also `O=C(NN=C1C[C@@H](O)[C@@H](O)[C@@H]2[C@@H]3C(=O)N(C4CCCCC4)C(=O)[C@@H]3CC[C@H]12)OCc1ccccc1` ?
Output line: -0.898

Input line: And what about the molecule `CO[C@H]1COC(=O)CC=C[C@H](C)COC(=O)[C@@H](C)NC(=O)CC=C[C@@H]1C` ?
Output line: -0.447

Input line: Also CC(C)C[C@H](NC(=O)CCC1CC(OC(=O)NCc2cccc3ccccc23)CC2(CCCC(COC(=O)NCc3ccccc3)O2)O1)C(=O)NCC(c1ccccc1)c1ccccc1 (stereo not given in full) ?
Output line: 0.576
